test system: NCI-H1355; test: relative viability (nuclei count vs DMSO), 5 days (fraction); higher = more cells survive; details: first compound 0.04 µM
Some molecules, each annotated with its measured relative viability.

- MOLECULE: "Cc1sc2c(c1C)C(c1ccc(Cl)cc1)=N[C@@H](CC(=O)OC(C)(C)C)c1nnc(C)n1-2 [JQ1] + Nc1nc2[nH]cc(CCc3ccc(C(=O)N[C@@H](CCC(=O)O)C(=O)O)cc3)c2c(=O)[nH]1 [Pemetrexed] (partner 0.2 µM)"
  relative viability: 1.05
- MOLECULE: "Cc1sc2c(c1C)C(c1ccc(Cl)cc1)=N[C@@H](CC(=O)OC(C)(C)C)c1nnc(C)n1-2 [JQ1] + Cc1nc(Nc2ncc(C(=O)Nc3c(C)cccc3Cl)s2)cc(N2CCN(CCO)CC2)n1 [Dasatinib] (partner 0.075 µM)"
  relative viability: 0.774

----------
Some compounds, each annotated with its measured relative viability.
tested on: LCLC-103H; assay: relative viability (nuclei count vs DMSO), 5 days (fraction); higher = more cells survive; details: first compound 0.000632 µM
REPORTED_PROPERTY: relative viability

- COMPOUND: "CC(=O)O[C@@]12CO[C@@H]1C[C@H](O)[C@@]1(C)C(=O)[C@H](O)C3=C(C)[C@@H](OC(=O)[C@H](O)[C@@H](NC(=O)OC(C)(C)C)c4ccccc4)C[C@@](O)([C@@H](OC(=O)c4ccccc4)[C@H]21)C3(C)C [Docetaxel] + CCNC(=O)c1noc(-c2cc(C(C)C)c(O)cc2O)c1-c1ccc(CN2CCOCC2)cc1 [Luminespib] (partner 0.01 µM)"
  REPORTED_PROPERTY: "relative viability"
  ASSAY_VALUE: 0.835
- COMPOUND: "CC(=O)O[C@@]12CO[C@@H]1C[C@H](O)[C@@]1(C)C(=O)[C@H](O)C3=C(C)[C@@H](OC(=O)[C@H](O)[C@@H](NC(=O)OC(C)(C)C)c4ccccc4)C[C@@](O)([C@@H](OC(=O)c4ccccc4)[C@H]21)C3(C)C [Docetaxel] + Cc1cc(Nc2cc(N3CCN(C)CC3)nc(Sc3ccc(NC(=O)C4CC4)cc3)n2)n[nH]1 [Tozasertib] (partner 0.1 µM)"
  REPORTED_PROPERTY: "relative viability"
  ASSAY_VALUE: 0.39

----------
test system: COR-L23; test: relative viability (nuclei count vs DMSO), 5 days (fraction); higher = more cells survive; details: first compound 0.002 µM
Some compounds, each annotated with its measured relative viability.

- COMPOUND: "CC(=O)O[C@@]12CO[C@@H]1C[C@H](O)[C@@]1(C)C(=O)[C@H](O)C3=C(C)[C@@H](OC(=O)[C@H](O)[C@@H](NC(=O)OC(C)(C)C)c4ccccc4)C[C@@](O)([C@@H](OC(=O)c4ccccc4)[C@H]21)C3(C)C [Docetaxel] + CC1(C)CCC(c2ccc(Cl)cc2)=C(CN2CCN(c3ccc(C(=O)NS(=O)(=O)c4ccc(N[C@H](CCN5CCOCC5)CSc5ccccc5)c(S(=O)(=O)C(F)(F)F)c4)cc3)CC2)C1 [Navitoclax] (partner 0.5 µM)"
  relative viability: 0.373
- COMPOUND: "CC(=O)O[C@@]12CO[C@@H]1C[C@H](O)[C@@]1(C)C(=O)[C@H](O)C3=C(C)[C@@H](OC(=O)[C@H](O)[C@@H](NC(=O)OC(C)(C)C)c4ccccc4)C[C@@](O)([C@@H](OC(=O)c4ccccc4)[C@H]21)C3(C)C [Docetaxel] + Cc1nc(Nc2ncc(C(=O)Nc3c(C)cccc3Cl)s2)cc(N2CCN(CCO)CC2)n1 [Dasatinib] (partner 0.075 µM)"
  relative viability: 0.226
- COMPOUND: "CC(=O)O[C@@]12CO[C@@H]1C[C@H](O)[C@@]1(C)C(=O)[C@H](O)C3=C(C)[C@@H](OC(=O)[C@H](O)[C@@H](NC(=O)OC(C)(C)C)c4ccccc4)C[C@@](O)([C@@H](OC(=O)c4ccccc4)[C@H]21)C3(C)C [Docetaxel] + C[C@@H](Oc1cc(-c2cnn(C3CCNCC3)c2)cnc1N)c1c(Cl)ccc(F)c1Cl [Crizotinib] (partner 1 µM)"
  relative viability: 0.111
- COMPOUND: "CC(=O)O[C@@]12CO[C@@H]1C[C@H](O)[C@@]1(C)C(=O)[C@H](O)C3=C(C)[C@@H](OC(=O)[C@H](O)[C@@H](NC(=O)OC(C)(C)C)c4ccccc4)C[C@@](O)([C@@H](OC(=O)c4ccccc4)[C@H]21)C3(C)C [Docetaxel] + CC(C)C[C@H](NC(=O)[C@H](Cc1ccccc1)NC(=O)c1cnccn1)B(O)O [Bortezomib] (partner 0.002 µM)"
  relative viability: 0.844
